Taken from patent US20250188153A1.

# ASSAY SYSTEM: hMPV B2 F monomer (human metapneumovirus)
# RUN DESCRIPTION: ELISA on coated recombinant protein, OD 405 nm
Friendly reminder: EC50 below 0.1 µg/mL is true (1), at or above is false (0).

BINDER	QUALITATIVE LABEL
MPV454 (antibody, V domains shown) VH: EVQLVESGGGLVKPGGSLRLSCSTSGFVFSSYAMHWVRQAPGKGLEHVSAISSTGDNTHYADSVKGRFTISRDNSRGRLYLQMTSVRPEDAALYYCVKDLYSGRFYYFLDDWGQGTRIIVSS VL: DIQVTQSPSSLSASVGDRVTISCRASQNISNYLNWFQQRPGKAPKLLIYVASTLQSGAPSRFSGSGSGTDFTLTITDLQPEDFATYYCQQSYNTPPITFGQGTRLEIK	true (1)
MPV478 (antibody, V domains shown) VH: EVQLVQSGAEVKKPGASVKVSCNASGYTFTGYYIHWVRQAPGQGLEWMGWINPRSGGTNYAQKFQGRVTLTRDTSITTAYMDVTRLRPDDTAVYYCATTREGIVLMPRGRGDDALDTWGQGTTVIVSS VL: DIVMTQSPVSLTVSLGERATINCKSSQSVLSTSNNENYLAWYQQKPGQPPNLLIYWASTRESGVPDRFSGSGSGTDFTLTISSLQAEDVAVYYCQQYFATPITFGPGTKVDVK	true (1)
MPV86 (antibody, V domains shown) VH: QVQLVQSGAEVKKPGSSVKVSCKASGDTFNDVALSWVRQAPGQGLEWLGGIIPFFGTANYAQRFQDRVTITADASTSTAYLELGGLRSEDTAVYYCARGWSCRNITCFMMGYYFYIMDVWGQGTLVTVSS VL: LSLSPGERATLSCRASQSVGNFLAWYQQKPGQTPRLLIQDASNRATGIPARFSGTGSGTDFTLTISSLEPEDFAVYYCQQRSNWPPTFGPGTKVDIK	false (0)
MPV481 (antibody, V domains shown) VH: EVQLVQSGGGLVKPGGSLRLSCAASGLPFNNAWMNWVRQAPGKGLEWVGRIKSKIDGGTTEYAAPVKGRFTISRDDSENTLYLQMNSLRTEDTAVYYCTTEYYALLSGNYSDCWGQGTLVTVSS VL: DIVMTQSPFSLSLSPGERATLSCRASQSIKRAYLGWYQQKPGQAPRLLIYGASNRATGIPDRFSGSGSGTDFTLTISRLEPEDFAVYYCQQYGDSPGGSFGQGTKLEIR	false (0)
